Cited source: patent US20230302148A1

Recorded measurements of In vitro activity relative to native peptide (%) vs. GLP-1, one per entry
Target: human GLP-1 receptor (human, UniProt P43220 24-463)
Assay: cell-based or functional assay
Bridges are numbered along the chain shown (N, C = ends). Where no end group is shown, it is not given here. [ ]: non-standard residue; d: D form. Aib = CC(C)(N)C(=O)O
Numbers only here, please. The scale is %.

Answered cases to consult:
>>> testresult("Y[Aib]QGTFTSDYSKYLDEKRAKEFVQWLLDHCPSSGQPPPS (bridge 16-20) [triple agonist of SEQ ID NO: 96]")
34.4
>>> testresult("Y[Aib]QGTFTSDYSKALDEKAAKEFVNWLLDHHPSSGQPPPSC (bridge 16-20) [triple agonist of SEQ ID NO: 98]")
28.1
>>> testresult("H[Aib]QGTFTSDYSKYLDEKRAQEFVCWLLAQKGKKNDWKHNIT [triple agonist of SEQ ID NO: 28]")
17.2
>>> testresult("H[Aib]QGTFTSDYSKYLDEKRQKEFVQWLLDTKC (bridge 16-20) [triple agonist of SEQ ID NO: 78]")
51
>>> testresult("H[Aib]QGTFTSDVSSYLDGQAAKEFIAWLVKGC [triple agonist of SEQ ID NO: 1]")
3.2

Would you kindly look at the next entry?
Exercise: Endpoint output: In vitro activity relative to native peptide (%) vs. GLP-1 of H[Aib]QGTFTSDVSSYLLGQQQKEFIAWLVKGGGPSSGAPPPSC [triple agonist of SEQ ID NO: 5] . Value?
Solution: 42.1
